Measured IC50 accompanies every entry in the list below.
Tgt: JAK2 (Homo sapiens)
Construct: endogenous in cells
Sequence (O60674 whole entry): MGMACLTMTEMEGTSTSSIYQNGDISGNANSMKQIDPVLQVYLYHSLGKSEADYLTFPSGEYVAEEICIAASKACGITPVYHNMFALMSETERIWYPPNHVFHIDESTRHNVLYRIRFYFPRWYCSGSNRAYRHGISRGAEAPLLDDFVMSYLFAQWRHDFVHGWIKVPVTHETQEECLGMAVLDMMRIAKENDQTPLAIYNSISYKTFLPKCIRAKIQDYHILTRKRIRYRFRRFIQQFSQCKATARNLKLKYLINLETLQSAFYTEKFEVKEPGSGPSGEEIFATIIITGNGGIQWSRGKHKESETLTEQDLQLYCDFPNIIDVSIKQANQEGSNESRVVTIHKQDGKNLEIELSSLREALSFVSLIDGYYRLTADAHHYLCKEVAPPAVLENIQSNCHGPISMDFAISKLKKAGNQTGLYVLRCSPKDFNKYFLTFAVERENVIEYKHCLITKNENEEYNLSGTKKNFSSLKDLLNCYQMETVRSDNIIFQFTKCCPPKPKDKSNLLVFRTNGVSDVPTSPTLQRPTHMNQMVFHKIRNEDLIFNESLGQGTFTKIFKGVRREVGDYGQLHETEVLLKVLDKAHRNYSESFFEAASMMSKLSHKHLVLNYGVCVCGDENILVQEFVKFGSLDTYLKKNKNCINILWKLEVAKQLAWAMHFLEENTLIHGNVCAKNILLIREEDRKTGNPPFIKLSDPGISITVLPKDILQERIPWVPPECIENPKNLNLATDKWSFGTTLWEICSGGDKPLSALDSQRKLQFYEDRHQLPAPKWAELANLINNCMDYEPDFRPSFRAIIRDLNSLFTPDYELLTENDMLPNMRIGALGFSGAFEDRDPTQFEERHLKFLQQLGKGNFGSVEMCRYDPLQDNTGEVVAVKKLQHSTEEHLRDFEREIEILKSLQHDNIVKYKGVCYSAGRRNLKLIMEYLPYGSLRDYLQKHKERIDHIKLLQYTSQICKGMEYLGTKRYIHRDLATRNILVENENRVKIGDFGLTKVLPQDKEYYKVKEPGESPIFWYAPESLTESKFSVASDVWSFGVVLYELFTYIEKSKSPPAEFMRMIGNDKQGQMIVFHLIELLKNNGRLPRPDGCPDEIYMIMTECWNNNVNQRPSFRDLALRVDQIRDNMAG
Protocol Details: Kinobeads assay, JAK2 (competition binding in mixed Molt4/Ramos cell lysate, dot blot detection)
Experimental Context: read-out: JAK2 Band (Kinobeads assay potency, IC50)

Enquiry: Entry CS(=O)(=O)NCc1cccc(CNc2nc(Nc3cnn(CC(=O)N4CCC[C@H]4C#N)c3)ncc2Cl)c1 [Example I-400] has what IC50?
Return: 1 to 10 µM

Enquiry: Now try CC(C)Oc1cccc(CNc2nc(Nc3cnn(CCO)c3)ncc2Cl)c1 [Example I-334] .
Return: 1 to 10 µM

Enquiry: Now try COc1ccc(F)c(CNc2ccnc(Nc3cnn(CC(=O)NCC(F)F)c3)n2)c1F [Example I-127] .
Return: 1 to 10 µM
